# system: Tyrosine-protein kinase BTK (Homo sapiens)
# Sequence (Q06187 whole entry): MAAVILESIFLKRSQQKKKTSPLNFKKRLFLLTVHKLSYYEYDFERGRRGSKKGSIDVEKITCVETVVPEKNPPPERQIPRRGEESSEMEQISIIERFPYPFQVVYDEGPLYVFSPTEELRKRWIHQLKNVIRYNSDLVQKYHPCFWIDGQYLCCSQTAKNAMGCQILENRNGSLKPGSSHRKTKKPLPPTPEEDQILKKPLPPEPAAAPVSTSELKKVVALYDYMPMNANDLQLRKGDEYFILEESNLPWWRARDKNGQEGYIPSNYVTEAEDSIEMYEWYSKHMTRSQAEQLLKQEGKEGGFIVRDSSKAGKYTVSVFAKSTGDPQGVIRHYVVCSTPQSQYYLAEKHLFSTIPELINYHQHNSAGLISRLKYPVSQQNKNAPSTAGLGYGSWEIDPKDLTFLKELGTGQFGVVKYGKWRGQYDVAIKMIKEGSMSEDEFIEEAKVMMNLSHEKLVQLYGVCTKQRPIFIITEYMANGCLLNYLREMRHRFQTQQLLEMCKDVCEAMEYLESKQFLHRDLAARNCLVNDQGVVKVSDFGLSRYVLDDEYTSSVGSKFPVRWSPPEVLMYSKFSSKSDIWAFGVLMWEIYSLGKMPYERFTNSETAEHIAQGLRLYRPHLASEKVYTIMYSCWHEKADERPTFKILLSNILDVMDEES
pIC50: −log10 of the molar value.
property: pIC50

C=CC(=O)N1CCN(c2cncnc2-c2ccc(CNC(=O)c3cn(C(C)(C)C)nn3)c(C)c2)CC1 : ≥ 9.00
C=CC(=O)N1CCN(c2cncnc2-c2ccc(CNC(=O)c3nnn(C(C)(C)C)n3)c(C)c2)CC1 : ≥ 9.00

Now consider a different compound.
Give its pIC50 value. Item: C=CC(=O)N(C)C1CCN(c2cncnc2-c2ccc(CNC(=O)c3cn(C(C)(C)C)nn3)c(C)c2)C1 (stereo not drawn)
≥ 9.00
